target-entity: PfCSP full length (Plasmodium falciparum (isolate NF54), UniProt P19597)
Sequence (P19597 20-375): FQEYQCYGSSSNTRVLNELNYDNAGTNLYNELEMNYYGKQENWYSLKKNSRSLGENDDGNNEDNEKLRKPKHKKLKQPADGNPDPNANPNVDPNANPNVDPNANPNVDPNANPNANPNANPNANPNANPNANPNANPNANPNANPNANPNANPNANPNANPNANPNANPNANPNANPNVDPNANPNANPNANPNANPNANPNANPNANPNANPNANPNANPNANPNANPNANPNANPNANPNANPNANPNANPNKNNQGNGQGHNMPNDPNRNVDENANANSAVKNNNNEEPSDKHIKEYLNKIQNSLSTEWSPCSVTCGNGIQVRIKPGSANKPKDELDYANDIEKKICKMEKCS
method-notes: ELISA AUC
Form field: binding score (one value per entry).
measured-attribute: binding score

INSERT INTO results (binder, measured_attribute, measured_number) VALUES
  ('CL-459075 (antibody, V domains shown, peptides N-terminally acetylated and C-terminally amidated) VH: QVQLVASGGGVVQPGRSLRLSCAASGFTFSNYGMHWVRQAPGKGLEWVSIIWYDGSKKYYSDSVKGRFTISRDNSKNTLYLQMNSLRAEDTAVYYCARAYGSGSYSDDYYGMDVWGQGTTVTVSS VL: DIQMTQSPSTLSASVGDRVTITCRASQSISTWLAWCQQKPGKAPKLLIYKASNLESGVPSRFSGSGSGTEFTLTISSLQPDDFATYYCQQYYSYWTFGQGTKVEIK', 'binding score', 2.5),
  ('CL-512459 (antibody, V domains shown, peptides N-terminally acetylated and C-terminally amidated) VH: QVQLVESGGGVVQPGRSLRLSCTASGFTFSDYGMHWVRQAPGKGLEWVSIIWYDGSKKYYADSVQGRFTISRDNSKNTLYLQMSSLRAEDTAVYYCARAYGSGSYYTFNYWGQGTLVTVSS VL: EIVMTQSPATLSVSPGERATLSCRASQSVNSNLAWYQQKPGQAPRLLIYGASTRATGFPARFIGSGSGTDFTLTINSLQSEDFAVYYCQQYNHWWTFGQGTKVEIK', 'binding score', 2.08),
  ('CL-512206 (antibody, V domains shown, peptides N-terminally acetylated and C-terminally amidated) VH: QVQLVESGGGVVQPGRSLRLSCAASGFTFSHYGMHWVRQAPGKGLEWVAVIWYDGNNKFYADSVKGRFTISRDNSNNTLYLQMNSLRAEDTAVYHCVRERTGATSRGFDFWGQGTLVTVSS VL: QSVLTQPPSVSAAPGQKVTISCSGSDSNIEKYYVSWYQQLPGSAPKLLIYDNNKRPSGIPDRFSGSKSGTSATLGITGLQTGDEAVYYCGTWDSSLSTGVFGGGTKLTVL', 'binding score', 1.86),
  ('CL-511026 (antibody, V domains shown, peptides N-terminally acetylated and C-terminally amidated) VH: QVQLVESGGGVVQPGRSLRLSCAASGFTFSNFGMHWVRQAPDRGLEWVSIIWYDGSNKFYADSVKGRFTISRDNSKNTLFLQMDSLRAEDTAVYYCAKAEMRTSDYYNYGMDVWGQGTTVTVSS VL: DIQMTQSPSTLSASVGDRVTITCRASQSISSWLAWYQQKPGKAPKLLIYKASSLESGVPSRFSGSGSATEFTLTIRSLQPDDFATYYCQQYYSYWTFGQGTKVEIN', 'binding score', 2.08),
  ('CL-532151 (antibody, V domains shown, peptides N-terminally acetylated and C-terminally amidated) VH: QVQLVESGGGVVQPGGSLRLSCAASGFTFSGSGMHWVRHAPGKGLEWVAIIWYDGSNKFYADSVKGRFTISRDNSRNTLYLQMNSLRAEDTAVYYCARAYVSGNYGDKYGMDVWGQGTTVTVSS VL: DIQMTQSPSTLSASVGDRVTITCRASQSISNWLAWFQQKPGKAPKLLIYKASSLESGVPSRFSGSGSGTEFTLTINSLQPDDFATYFCQQYNYYWTFGQGTKVEIK', 'binding score', 2.53);
